The reported numbers originate from the supplement of paper PMC4466140.

- TESTED ON: CaLsb1
- ASSAY PROCEDURE: SPOT peptide array binding signal intensity (averaged, normalized) (arbitrary units (background-subtracted, floor 0; scale differs between SH3 domains)); higher = stronger binding of the SH3 domain to the peptide
PARAMETER MEASURED: SPOT peptide array binding signal intensity

BINDER	QUAL	RECORDED VALUE
PLRRTVMSLPGNHDI	=	0.5
APPLPPTAPPPPSLP	≤	0
NRARYLPQNPDIIAG	=	1
TKFRISLGLPVGAIM	=	31
DHPKGPPPPPPPDEK	≤	0
QFDLKMPSKPIHNLK	≤	0
QRIRKIPGIPLMSVG	=	1.25
